test system: MARIMO; experiment: cell viability relative to vehicle control; higher = less cytotoxic; settings: 10 µM; SRSF2 genotype: SRSF2 P95H/wt;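 also: after 48 h exposure read by CellTiter-Glo luminescence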
Structures can show the parent of a compound that is named as a salt.
Listed next: entries and their corresponding cell viability.
Only the number, expressed in %, is required.

Reference set (4 entries):
>>> observed_result("O=C(CCCCc1ccc2c(c1)OCO2)N1CCCCC1 [Tetrahydropiperine]")
88.6
>>> observed_result("COc1cc(C(=O)NS(=O)(=O)c2ccccc2C)ccc1Cc1cn(C)c2ccc(NC(=O)OC3CCCC3)cc12 [Zafirlukast (Accolate)]")
96
>>> observed_result("Cc1cc(/C=C2/SC(=S)NC2=O)c(C)n1-c1cccnc1")
92.2
>>> observed_result("O=C1C(N(CO)C(=O)NCO)N(CO)C(=O)N1CO (configuration not stated)")
98.9

Form field cell viability, entry Cc1cc(=O)oc2ccc(O)cc12 [6-Hydroxy-4-methylcoumarin] : 107

Form field cell viability, entry CC1=CCC2C(C1)C2(C)C (configuration not stated) : 101

Form field cell viability, entry "C[C@]12C=CC(=O)C=C1CC[C@@H]1[C@@H]2[C@@H](O)C[C@@]2(C)[C@H]1CC[C@]2(O)C(=O)CO" : 101

Form field cell viability, entry "COc1ccc(-n2nc(C(N)=O)c3c2C(=O)N(c2ccc(N4CCCCC4=O)cc2)CC3)cc1" : 97.9

Form field cell viability, entry "C/C(=C\CO)CCC[C@H](C)CCC[C@H](C)CCCC(C)C" : 89.1

Form field cell viability, entry CN(C)[C@@H](CCOc1cccc2ccccc12)c1ccccc1 [Dapoxetine hydrochloride (Priligy)] : 52.7

Form field cell viability, entry "O=C(NC1(c2ccccc2)CC1)c1c(CN2CCC(N3CCCCC3)CC2)c(-c2cccc(C(F)(F)F)c2)nc2cc(Br)ccc12" : 66.8

----------
Listed next: entries and their corresponding cell viability.
tested on: OCI-AML2; assay: cell viability relative to vehicle control; higher = less cytotoxic; settings: 10 µM; SRSF2 genotype: P95H/wt
Only the number, expressed in %, is required.

Reference set (4 entries):
>>> observed_result("COCC1=C(C(=O)OC(C)OC(=O)OC(C)C)N2C(=O)[C@@H](NC(=O)/C(=N\\OC)c3csc(N)n3)[C@H]2SC1 (some centres not stated)")
90.3
>>> observed_result("CC1(C)[C@@H](O)CC[C@]2(C)[C@H]3C(=O)C=C4[C@@H]5C[C@@](C)(C(=O)O)CC[C@]5(C)CC[C@@]4(C)[C@]3(C)CC[C@@H]12")
110
>>> observed_result("CCCCCCCCCCCCCCCC(=O)OCC(O)C1OC(=O)C(O)=C1O [L-Ascorbyl 6-palmitate]")
103
>>> observed_result("C=C1[C@H](O)C[C@H]2[C@@H](/C=C(\\C)C(=O)[C@@]3(O)C[C@H](C)[C@H](O)[C@@H]3[C@H]1O)C2(C)C")
93.9

Form field cell viability, entry Cc1ccc(-n2[nH]c(C)c(N=Nc3cccc(-c4cccc(C(=O)O)c4)c3O)c2=O)cc1C [Eltrombopag olamine] : 66.3

Form field cell viability, entry "OCCN1C[C@H](O)[C@@H](O)[C@H](O)[C@H]1CO" : 107

Form field cell viability, entry Cc1cc(C(O)=C2C(=O)C(=O)N(CCCN3CCOCC3)C2c2ccncc2)ccc1OCc1ccccc1 (configuration not stated) : 103

# credit: the supplement of paper PMC10981050
